Recorded values, source patent US5414000A.

Test system: HSV-2 (herpes simplex virus type 2, strain 186)
Assay: HSV-2 antiviral plaque reduction assay in WI-38 cell culture
Format: cell-based
Settings: Human alphaherpesvirus 2, 96 h; HSV-2 strain 186; WI-38 monolayers; at least 50% plaque reduction vs virus controls; 4 days at 37° C.; read-out: ID50 HSV-2
pIC50: −log10 of the molar value.
observation-type: pIC50

QUERY: Sample `Nc1nc2c(ncn2[C@@H]2CO[C@H](CO)[C@@H](O)C2)c(=O)[nH]1` — what was its pIC50?
RESULT: 4.74

QUERY: Sample `Nc1ncnc2c1ncn2[C@@H]1CO[C@H](CO)[C@@H](O)C1` — what was its pIC50?
RESULT: 4.72 to 5.10

QUERY: Sample `O=c1[nH]c(=O)n([C@@H]2CO[C@H](CO)[C@@H](O)C2)cc1/C=C/Br` — what was its pIC50?
RESULT: < 3.54

QUERY: Sample `Cc1cn([C@@H]2CO[C@H](CO)[C@@H](O)C2)c(=O)[nH]c1=O` — what was its pIC50?
RESULT: < 3.41

QUERY: Sample `O=c1[nH]c(=O)n([C@@H]2CO[C@H](CO)[C@@H](O)C2)cc1I` — what was its pIC50?
RESULT: 5.27 to 5.52

QUERY: Sample `Nc1ccn([C@@H]2CO[C@H](CO)[C@@H](O)C2)c(=O)n1` — what was its pIC50?
RESULT: 6.10 to 6.40
